// values below are reported Kd
Target: T1, human IL-11 (human, UniProt P20809 22-199)
T1 construct: bought from Invigate; also called hIL-11; hIL11
T1 sequence: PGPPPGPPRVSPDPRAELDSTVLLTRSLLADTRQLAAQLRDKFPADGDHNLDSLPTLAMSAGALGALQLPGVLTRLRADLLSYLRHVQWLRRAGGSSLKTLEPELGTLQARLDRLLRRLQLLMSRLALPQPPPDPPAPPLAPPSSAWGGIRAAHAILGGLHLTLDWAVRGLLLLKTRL
Test: SPR, antibody captured, IL-11 as analyte
quantity: Kd (nM)

binder="TPP-26319 (antibody, V domains shown, constant regions not restated) VH: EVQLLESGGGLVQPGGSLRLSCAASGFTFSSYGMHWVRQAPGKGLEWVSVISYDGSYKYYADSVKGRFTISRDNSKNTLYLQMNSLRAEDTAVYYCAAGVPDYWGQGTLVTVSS VL: QSVLTQPPSASGTPGQRVTISCTGSSSNIGAGYDVHWYQQLPGTAPKLLIYSNNEKPSGVPDRFSGSKSGTSASLAISGLRSEDEADYYCAAWDDSLNGPVFGGGTKLTVL" quantity=Kd numeric_readout=12
binder="TPP-26318 (antibody, V domains shown, constant regions not restated) VH: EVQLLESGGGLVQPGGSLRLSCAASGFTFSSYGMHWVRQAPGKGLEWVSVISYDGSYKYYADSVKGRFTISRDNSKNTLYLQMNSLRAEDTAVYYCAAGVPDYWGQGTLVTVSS VL: QSVLTQPPSASGTPGQRVTISCTGSSSNIGAGYFVHWYQQLPGTAPKLLIYSNNERPSGVPDRFSGSKSGTSASLAISGLRSEDEADYYCAAWDDSLNGPVFGGGTKLTVL" quantity=Kd numeric_readout=14
binder="TPP-26306 (antibody, V domains shown, constant regions not restated) VH: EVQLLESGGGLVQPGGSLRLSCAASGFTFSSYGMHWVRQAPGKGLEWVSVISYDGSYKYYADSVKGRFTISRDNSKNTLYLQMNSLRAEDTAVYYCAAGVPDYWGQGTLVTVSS VL: QSVLTQPPSASGTPGQRVTISCTGSSSNIGAGYDVHWYQQLPGTAPKLLIYSNNERPSGVPDRFSGSKSGTSASLAISGLRSEDEADYYCAAWDQSLNGPVFGGGTKLTVL" quantity=Kd numeric_readout=12
